Target: T1, PUF4 RNA-binding domain (Saccharomyces cerevisiae, UniProt P25339 537-888)
T1 sequence: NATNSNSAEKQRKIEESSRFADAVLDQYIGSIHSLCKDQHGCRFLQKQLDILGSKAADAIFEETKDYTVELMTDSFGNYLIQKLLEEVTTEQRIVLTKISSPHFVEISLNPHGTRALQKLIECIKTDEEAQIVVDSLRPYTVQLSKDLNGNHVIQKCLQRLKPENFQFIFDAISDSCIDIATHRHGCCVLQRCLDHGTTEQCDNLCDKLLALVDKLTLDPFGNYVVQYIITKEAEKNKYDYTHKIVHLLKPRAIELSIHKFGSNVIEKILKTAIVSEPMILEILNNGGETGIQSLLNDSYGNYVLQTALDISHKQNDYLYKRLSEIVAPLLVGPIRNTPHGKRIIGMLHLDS
Experiment: Mg; RNA-MaP; 20 mM Na-HEPES pH 7.4, 30 mM KOAc, 0.75 mM MgCl2, 0.1% Tween-20, 5% glycerol, 0.1 mg/mL BSA, 2 mM DTT; 25 C; 0.0125-409.6 nM protein
Settings: tags: N-His6-TEV cleaved; C-SNAP kept, Cy3B-labelled; label: tethered on chip by stalled RNA polymerase
Recorded Kd values for a group of binders are listed next.
# value in nM; strip the unit string

Illustrative cases are given below, each with its answer.
[
  {
    "binder": "Ic_S2_P4E.1_K4.1_C4.1_H4.1_A4.1_[T5A]_[A6T]_[T7C]_F4.1_[T8C]_[A9C]_T4.1 (ssRNA) RNA: UUUGAUUAAUAUGAUAUCGUUCUUUCUUGUAAUCCCUUCUUUCUCGAUAUCAUAUUAAUCUUU",
    "units_of_measure": "nM",
    "Kd": 454
  },
  {
    "binder": "UCUCUUUGUAUUGCUUCUCUU (ssRNA) [Ic_S1_P4E.1_K4.1_C4.1_H4.1_A4.1_[A6T]_[T7G]_F4.1_[T8C]_[A9T]_T4.1]",
    "units_of_measure": "nM",
    "Kd": 443
  },
  {
    "binder": "Ie_S4_P5E.1_K5.1_C5.1_H5.1_A5.1_[+5TTCC]_F5.1_T5.1 (ssRNA) RNA: UUUGACAACUGAUCGUUCUUUCUUGUAUUUCCUAUUAUUCUUUCUCGAUCAGUUGUCUUU",
    "units_of_measure": "nM",
    "Kd": 9.15
  },
  {
    "binder": "Ie_S4_P5E.1_K5.1_C5.1_H5.1_[+4TTCCT]_A5.1_F5.1_T5.1 (ssRNA) RNA: UUUGACAACUGAUCGUUCUUUCUUGUAUUCCUUUAUUAUUCUUUCUCGAUCAGUUGUCUUU",
    "units_of_measure": "nM",
    "Kd": 16.5
  },
  {
    "binder": "Id_ii_S4_P4E.2_K4.1_C4.2_[T-1G]_H4.1_A4.1_F4.1_T4.2 (ssRNA) RNA: UUUGACAACUGAUCGUUCUUUCUCGUGUAUAUUAGUUUCUUUCUCGAUCAGUUGUCUUU",
    "units_of_measure": "nM",
    "Kd": 0.364
  },
  {
    "binder": "UCUCUUUGUAUUUCUAUCUCUU (ssRNA) [Ib_S1_P5E.1_K5.1_C5.1_H5.1_A5.1_[A7T]_F5.1_[T8C]_T5.1]",
    "units_of_measure": "nM",
    "Kd": 6.46
  }
]

[in] Given the entry UCUCUUCCUGUAUUAUUAUCUCUCUU (ssRNA) [Id_ii_S1_P5E.2_K5.1_C5.2_[T-1C]_H5.1_A5.1_F5.1_T5.2_[A12C]] , report its measured Kd.
[out] 6.56

[in] Given the entry UCUCUUUGUAACUCGUCUCUU (ssRNA) [Ic_S1_P4E.1_K4.1_C4.1_H4.1_A4.1_[T5A]_[A6C]_F4.1_[T8C]_[A9G]_T4.1] , report its measured Kd.
[out] 726

[in] Given the entry UCUCUUCCUGUAUUAUUAUUUCUCUU (ssRNA) [Id_ii_S1_P5E.2_K5.1_C5.2_[T-1C]_H5.1_A5.1_F5.1_T5.2_[A12T]] , report its measured Kd.
[out] 7.47

[in] Given the entry UCUCUUAUUAUAUAUUAAAUCUCUU (ssRNA) [Id_ii_S1_P4E.3_K4.2_C4.2_[C-2A]_H4.2_A4.1_F4.1_T4.2_[G10A]_[T11A]] , report its measured Kd.
[out] 72.4

[in] Given the entry UCUCUUUCUAUAUAUUACGUCUCUU (ssRNA) [Id_ii_S1_P4E.3_K4.2_C4.2_[C-2T]_[T-1C]_H4.2_A4.1_F4.1_T4.2_[G10C]_[T11G]] , report its measured Kd.
[out] 30.7
